Form field: growth (one value per entry).
System: OVCAR-5 ovarian
assay_protocol: NCI-60 one-dose screen, 48 h (100 = growth as untreated, 0 = no growth, -100 = all killed)
applied_conditions: 10 µM unless noted
About 83,000 compounds went through this panel and 20% of them were active in at least one assay; those are over-represented in the sample as a whole.
observation_type: growth (%)

>>> value_reported("Cc1ccc(Nc2ccc(Nc3ccc(C)cc3S(=O)(=O)O)c3c2C(=O)c2ccccc2C3=O)c(S(=O)(=O)O)c1")
106
>>> value_reported("NC(=S)c1csc(CCNC(=O)c2ccccc2)n1")
117
>>> value_reported("O=c1[nH]c(NCc2nnnn2-c2ccc(Br)cc2)nc2sc3c(c12)CCCC3")
100
>>> value_reported("COc1ccc(OC)c(C(=O)Nc2cccc(-c3cc(=O)c4ccccc4o3)c2)c1")
95.4
>>> value_reported("O=C(NC1CCOCC1)c1ccc2c(c1)CN(c1ncc(Cc3cccc(-n4cccn4)c3)s1)CC2")
95.1
>>> value_reported("NS(=O)(=O)Oc1ccc(NC(=O)C23CC4CC(CC(C4)C2)C3)cc1Cl")
101
>>> value_reported("O=S(=O)(NCCNc1cc(-c2c(-c3cccc(O)c3)nc3sccn23)ccn1)c1ccc(Br)cc1")
109
>>> value_reported("COc1cccc(/C=C2\\COc3ccc(O)cc3C2=O)c1OC")
89.7
>>> value_reported("Clc1ccc(-c2nnc(Cn3ccnc3)o2)cc1")
96.2
>>> value_reported("CCCCCCCCc1cc[n+](CC(=O)c2ccc(Br)cc2)cc1")
51.9
>>> value_reported("Cc1nc(Nc2ccc(NC(=S)Nc3ccccc3)cc2)c2ccccc2n1")
110
>>> value_reported("Nc1nc(I)c2ncn(C3OC(CO)C(O)C3O)c2n1 (stereo unspecified)")
104
>>> value_reported("CC1=CC(=O)C(C(C)C)=CC1=Nc1cc(Br)c(O)c(Br)c1")
29.4
>>> value_reported("CN(C)CCOC(=O)Nc1ccc(Cl)cc1")
109
>>> value_reported("O=C(Nc1ccccc1)c1sc(-c2cccc(C(F)(F)F)c2)cc1O")
104
>>> value_reported("O=C(CCc1nc(-c2cccc(Cl)c2)no1)Nc1ccccn1")
100
>>> value_reported("COc1cc(-c2cccc([N+](=O)[O-])c2)c(-c2nc(-c3ccccc3)c(-c3ccccc3)n2C2CC2)cc1OC")
87.3
>>> value_reported("COc1cc2c(c(OC)c1OC)C(=O)/C(=C/c1cc(C)c(O)c(C)c1)S2")
65.2
>>> value_reported("CNC(=O)NCC1OC(n2cnc3c(NC(=O)Nc4ccccc4)ncnc32)C2OC(C)(C)OC12 (stereo unspecified)")
109
>>> value_reported("CN(C)c1ccc2cc(-c3ccc(Cl)c(Cl)c3)c(N)nc2c1")
55.4
>>> value_reported("COc1ccc(/C=C2\\COc3ccc(O)c(O)c3C2=O)c(OC)c1")
74.1
>>> value_reported("CS(=O)(=O)c1ccc(N/N=C/c2c(-c3ccc(S(C)(=O)=O)cc3)[nH]c3ccc(F)cc23)cc1")
75.1
>>> value_reported("Cc1csc(NC(=O)c2sc3nc(-c4cccs4)ccc3c2N)n1")
116
>>> value_reported("CCN(CC)CCCNC(=O)c1ccc(N)cc1")
97.1
>>> value_reported("CCCCN(CCCC)CCCn1c(=O)c2sc3ncccc3c2n2nnc(-c3ccccc3)c12")
97.1
>>> value_reported("COc1ccc(-c2cc(-c3ccc(Nc4nc(Nc5ccccc5)nc(Nc5ccc(Cl)cc5)n4)cc3)nc(N)c2C#N)cc1")
-38.7
>>> value_reported("N#Cc1c(NC(=O)c2ccccc2I)sc2c1CCCC2")
70.8
>>> value_reported("COc1cc2c(cc1OC)-c1ccc3cc4c(cc3c1N(CCCn1ccnc1)C2)OCO4")
103
>>> value_reported("COc1cc(-c2ncn(/C=C\\c3nnco3)n2)cc(C(F)(F)F)c1")
37.9
>>> value_reported("CS(=O)(=O)c1ccc(-c2[nH]c3ccc(F)cc3c2/C=N/NC(N)=S)cc1")
28.2
>>> value_reported("Clc1cnc(Nc2ccc(OCCN3CCCC3)cc2)nc1NCc1ccco1")
8.69
>>> value_reported("COc1cccc(-c2nc3sccn3c2-c2ccnc(NCCNS(=O)(=O)c3c(Cl)cccc3Cl)c2)c1")
90.9
>>> value_reported("COC(=O)[C@]12CC[C@@H](C)[C@H](C)[C@@H]1C1=CC[C@@H]3[C@@]4(C)C(C=O)=C[C@@](C)(CO)C4=CC[C@@]3(C)[C@]1(C)CC2")
62.9
>>> value_reported("C=C(C=O)[C@@H]1CC=C(C=O)CC1")
-54.5
>>> value_reported("COc1ccc(-c2nc3sccn3c2/C=C/C(=O)c2c[nH]c3ccccc23)cc1")
63.5
>>> value_reported("N#Cc1c(N)nc2c(nnn2-c2cccc(Br)c2)c1N")
108
>>> value_reported("C=C1c2c(C)nn(-c3ccc(N)cc3)c2N(C)C23CC1C1(C)c4c(C)nn(-c5ccc(N)cc5)c4N(C)C(C)(CC12)C3 (stereo unspecified)")
101
>>> value_reported("O=C1c2cccc3c(-c4ccc(-c5nc6c7ccccc7c7ccccc7c6[nH]5)cc4)ccc(c23)C(=O)N1CCN1CCNCC1")
108
>>> value_reported("COc1ccc(C2CC(c3ccccc3)=NN2c2nc(C)c(C(C)=O)s2)cc1 (stereo unspecified)")
105
>>> value_reported("COc1ccc(OC)c(/C=C2\\COc3ccc(O)cc3C2=O)c1")
98.7
>>> value_reported("COc1cc2oc(-c3cccc(C(=O)Nc4ccc(C#N)cc4)c3)cc(=O)c2c(O)c1OC")
66.5
